Values from the RNAGym collection of RNA variant scans (doi:10.7554/elife.90254)

B1: OR4K15 (parent)
chain: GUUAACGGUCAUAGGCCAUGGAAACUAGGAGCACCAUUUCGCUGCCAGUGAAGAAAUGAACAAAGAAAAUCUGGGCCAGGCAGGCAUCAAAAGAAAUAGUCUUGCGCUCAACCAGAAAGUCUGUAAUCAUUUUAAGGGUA

variants of: B1; assay: self-cleavage, relative activity (ratio to wild type); higher = more cleavage; in vitro, sequencing; the parent is a self-cleaving ribozyme
measured_attribute: self-cleavage
Number, no unit, nothing else.

Worked cases, answers included:
>  <mutation_spec>
U19A U131C

>  <self-cleavage>
1.46

$$$$
>  <mutation_spec>
U2A A116G

>  <self-cleavage>
0.75

$$$$
>  <mutation_spec>
U49A U122A

>  <self-cleavage>
1.32

$$$$
>  <mutation_spec>
A36U A126G

>  <self-cleavage>
0.99

$$$$
>  <mutation_spec>
A55U A96C

>  <self-cleavage>
0.74

$$$$

self-cleavage reading for U9A U122C : 0.88

self-cleavage reading for A135U G137U : 1.68

self-cleavage reading for A63G U124C : 1.17

self-cleavage reading for U2C U39G : 1.43

self-cleavage reading for U26G A62G : 1.02

self-cleavage reading for `U127A` : 1.6

self-cleavage reading for A82U A95G : 0.51

self-cleavage reading for A63G A111C : 0.02

self-cleavage reading for G7A C40U : 1.81

self-cleavage reading for A110G A126G : 0.1
